# studyTarget: Mitogen-activated protein kinase 8 (Homo sapiens); note: in the data inactive means no Kd found up to 30 µM
# Sequence (P45983 whole entry): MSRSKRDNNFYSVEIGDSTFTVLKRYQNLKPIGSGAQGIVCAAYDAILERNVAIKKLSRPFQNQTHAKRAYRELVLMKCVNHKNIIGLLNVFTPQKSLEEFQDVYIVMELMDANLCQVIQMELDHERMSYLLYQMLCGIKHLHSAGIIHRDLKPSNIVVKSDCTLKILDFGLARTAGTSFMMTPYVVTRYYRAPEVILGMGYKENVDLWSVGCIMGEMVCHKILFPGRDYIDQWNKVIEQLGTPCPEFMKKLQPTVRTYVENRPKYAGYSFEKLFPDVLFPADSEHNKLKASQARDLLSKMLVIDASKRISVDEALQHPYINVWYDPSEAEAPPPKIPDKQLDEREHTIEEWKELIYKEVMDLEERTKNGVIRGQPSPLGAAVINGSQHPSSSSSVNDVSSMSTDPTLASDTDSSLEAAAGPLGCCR
Active and inactive are the calls of the source.
Answer with one of the outcomes T (active), F (inactive)

In this assay, the call recorded for `CN1CC[C@@H](c2c(O)cc(O)c3c(=O)cc(-c4ccccc4Cl)oc23)[C@@H]1CO` was what?
F

Then `C[C@@H](c1ccc2nccn2c1)n1nnc2ncc(-c3cnn(C)c3)nc21` ?
F

Then O=C(Nc1ccc(-c2ccnc(Nc3ccc(N4CCOCC4)cc3)n2)cc1)C1CCCN1 (stereo not given) ?
T

Then `CNC(=O)c1ccc(-c2cnc3ncc(Cc4ccc5ncccc5c4)n3n2)cc1F` ?
F

Then `CNC(=O)c1ccc(C)c(-n2c(C)cc(OCc3ccc(F)cc3F)c(Br)c2=O)c1` ?
F
